Some molecules, each annotated with its measured Kd.
experimental-target: JAK3 (Homo sapiens, UniProt P52333)
Sequence (P52333 822-1111 limits assumed): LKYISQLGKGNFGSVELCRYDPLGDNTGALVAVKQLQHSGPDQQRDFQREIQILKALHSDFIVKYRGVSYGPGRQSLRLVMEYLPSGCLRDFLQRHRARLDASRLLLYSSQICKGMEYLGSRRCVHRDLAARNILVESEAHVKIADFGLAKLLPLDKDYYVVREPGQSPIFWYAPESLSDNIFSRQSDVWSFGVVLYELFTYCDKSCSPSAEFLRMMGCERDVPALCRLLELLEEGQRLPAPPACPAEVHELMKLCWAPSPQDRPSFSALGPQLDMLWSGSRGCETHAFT
observation-type: Kd

molecule="Cc1cc(Nc2nc(C(O)c3ccc(F)cc3)nc3cc(OCC(=O)OC(C)(C)C)ccc23)n[nH]1 (racemic) [Example 43]" test_result="10 to 100 nM"
molecule="COc1ccc2c(Nc3cc(C)[nH]n3)nc(C(F)(F)c3ccc(F)cc3)nc2c1 [Example 32]" test_result="10 to 100 nM"
molecule="Cc1cc(Nc2nc(C(CCN)c3ccc(F)cc3)nc3ccccc23)n[nH]1 (stereo not shown) [Example 71]" test_result="10 to 100 nM"
molecule="OC(c1ccc(F)cc1)c1nc(Nc2cc[nH]n2)c2ccc(I)cc2n1 (racemic) [Example 23]" test_result="> 100 nM"
molecule="Cc1cc(Nc2nc(C(O)c3ccc(F)cc3)nc3cc(OCCCO)ccc23)n[nH]1 (racemic) [Example 40]" test_result="≤ 10 nM"
molecule="COc1ccc2c(Nc3cc[nH]n3)nc(C(O)c3ccc(F)cc3)nc2c1 (racemic) [Example 29]" test_result="10 to 100 nM"
molecule="Cc1cc(Nc2nc(C(=O)c3ccc(F)cc3)nc3cc(C(F)(F)F)ccc23)n[nH]1 [Example 17]" test_result="> 100 nM"
molecule="COc1cccc2c(Nc3cc[nH]n3)nc(C(=O)c3ccc(F)cc3)nc12 [Example 35]" test_result="> 100 nM"
molecule="Cc1cc(Nc2nc(C(O)c3ccc(F)cc3)nc3cc(C(F)(F)F)ccc23)n[nH]1 (racemic) [Example 18]" test_result="10 to 100 nM"
molecule="Cc1cc(Nc2nc(C(O)c3ccc(F)cc3)nc3cc(OCCN4CCOCC4)ccc23)n[nH]1 (racemic) [Example 38]" test_result="≤ 10 nM"
molecule="OC(c1ccc(F)cc1)c1nc(Nc2cc[nH]n2)c2ccccc2n1 (racemic) [Example 6]" test_result="10 to 100 nM"
molecule="Cc1cc(Nc2nc(C(NC=O)c3ccc(F)cc3)nc3ccccc23)n[nH]1 (stereo not shown) [Example 65]" test_result="10 to 100 nM"
molecule="Cc1cc(Nc2nc(C(CC#N)c3ccc(F)cc3)nc3ccccc23)n[nH]1 (stereo not shown) [Example 68]" test_result="10 to 100 nM"
molecule="COc1ccc2c(Nc3cc(C)[nH]n3)nc(C(=O)c3ccc(F)cc3)nc2c1 [Example 30]" test_result="10 to 100 nM"
molecule="COC(=O)NC(c1ccc(F)cc1)c1nc(Nc2cc(C)[nH]n2)c2ccccc2n1 (racemic) [Example 45]" test_result="10 to 100 nM"
molecule="Cc1cc(Nc2nc(C(O)c3ccc(F)cc3)nc3cc(Cl)ccc23)n[nH]1 (racemic) [Example 52]" test_result="10 to 100 nM"

* * *

Quick record: Kd, JAK2 (Homo sapiens).
observation-type: Kd

molecule="Cc1cc(Nc2nc(C(=O)c3ccc(F)cc3)nc3cc(C(F)(F)F)ccc23)n[nH]1 [Example 17]" test_result="> 10 nM"
molecule="Cc1cc(Nc2nc(C(O)c3ccc(F)cc3)nc3cc(OCCCO)ccc23)n[nH]1 (racemic) [Example 40]" test_result="≤ 1 nM"
molecule="Fc1ccc(C(F)(F)c2nc(Nc3cc(C4CC4)[nH]n3)c3ccccc3n2)cc1 [Example 10]" test_result="1 to 10 nM"
molecule="O=C(c1cccc(F)c1)c1nc(Nc2cc[nH]n2)c2ccccc2n1 [Example 2]" test_result="> 10 nM"
molecule="COc1ccccc1C(=O)c1nc(Nc2cc[nH]n2)c2ccccc2n1 [Example 5]" test_result="1 to 10 nM"
molecule="COc1ccccc1C(=O)c1nc(Nc2cc(C)[nH]n2)c2ccccc2n1 [Example 62]" test_result="1 to 10 nM"
molecule="Cc1cc(Nc2nc(C(=O)c3ccc(F)c(O)c3)nc3ccccc23)n[nH]1 [Example 77]" test_result="> 10 nM"
molecule="CCc1cc(Nc2nc(C(O)c3ccc(F)cc3)nc3ccccc23)n[nH]1 (racemic) [Example 74]" test_result="≤ 1 nM"
molecule="COc1cc(C(=O)c2nc(Nc3cc(C)[nH]n3)c3ccccc3n2)ccc1F [Example 76]" test_result="> 10 nM"
molecule="Cc1ccc2c(Nc3cc(C)[nH]n3)nc(C(O)c3ccc(F)cc3)nc2c1 (racemic) [Example 25]" test_result="≤ 1 nM"
molecule="Cc1cc(Nc2nc(C(O)c3ccc(F)cc3)nc3cc(OCCN4CCOCC4)ccc23)n[nH]1 (racemic) [Example 38]" test_result="≤ 1 nM"
molecule="Cc1cc(Nc2nc(C3(c4ccc(F)cc4)OCCO3)nc3ccccc23)n[nH]1 [Example 59]" test_result="≤ 1 nM"
molecule="COC(=O)NC(c1ccc(F)cc1)c1nc(Nc2cc(C)[nH]n2)c2ccccc2n1 (racemic) [Example 45]" test_result="≤ 1 nM"
molecule="Cc1ccc2c(Nc3cc(C)[nH]n3)nc(C(F)(F)c3ccc(F)cc3)nc2c1 [Example 26]" test_result="≤ 1 nM"
molecule="COc1ccc2c(Nc3cc(C)[nH]n3)nc(C(=O)c3ccc(F)cc3)nc2c1 [Example 30]" test_result="1 to 10 nM"
molecule="Cc1cc(Nc2nc(C(CCN)c3ccc(F)cc3)nc3ccccc23)n[nH]1 (centres unmarked) [Example 71]" test_result="1 to 10 nM"
molecule="Cc1cc(Nc2nc(C(O)c3ccc(F)cc3)nc3c(F)cccc23)n[nH]1 (racemic) [Example 61]" test_result="≤ 1 nM"
molecule="Cc1cc(Nc2nc(C(O)c3ccc(F)c(Cl)c3)nc3ccccc23)n[nH]1 (centres unmarked) [Example 67]" test_result="≤ 1 nM"
molecule="CCOCc1ccc2c(Nc3cc(C)[nH]n3)nc(C(F)(F)c3ccc(F)cc3)nc2c1 [Example 51]" test_result="≤ 1 nM"
molecule="N#Cc1cc(Nc2nc(C(O)c3ccc(F)cc3)nc3ccccc23)n[nH]1 (racemic) [Example 15]" test_result="> 10 nM"
molecule="Cc1cc(Nc2nc(C(O)c3ccc(F)cc3)nc3cc(OCCO)ccc23)n[nH]1 (racemic) [Example 39]" test_result="≤ 1 nM"
molecule="Cc1cc(Nc2nc(C(F)(F)c3ccc(F)cc3)nc3c(F)cccc23)n[nH]1 [Example 34]" test_result="≤ 1 nM"
molecule="Cc1cc(Nc2nc(C(NC=O)c3ccc(F)cc3)nc3ccccc23)n[nH]1 (centres unmarked) [Example 65]" test_result="≤ 1 nM"
molecule="Cc1cc(Nc2nc(C(F)(F)c3ccc(F)cc3)nc3ccccc23)n[nH]1 [Example 8]" test_result="≤ 1 nM"
molecule="OC(c1ccc(F)cc1)c1nc(Nc2cc[nH]n2)c2ccc(Br)cc2n1 (racemic) [Example 58]" test_result="1 to 10 nM"
molecule="Fc1ccc(C(F)c2nc(Nc3cc[nH]n3)c3ccccc3n2)cc1 (racemic) [Example 7]" test_result="≤ 1 nM"
molecule="Cc1cc(Nc2nc(C(=O)c3ccc(F)cc3)nc3c(F)cccc23)n[nH]1 [Example 60]" test_result="1 to 10 nM"
molecule="Cc1ccc2c(Nc3cc[nH]n3)nc(C(F)(F)c3ccc(F)cc3)nc2c1 [Example 27]" test_result="≤ 1 nM"
molecule="Cc1cc(Nc2nc(C(CS(C)(=O)=O)c3ccc(F)cc3)nc3ccccc23)n[nH]1 (centres unmarked) [Example 70]" test_result="≤ 1 nM"
